Tested on: DU-145 prostate
Assay: NCI-60 one-dose screen, 48 h (100 = growth as untreated, 0 = no growth, -100 = all killed)
Conditions: 10 µM unless noted
Procedure: Cells are grown in 96 well plates and exposed to the test compound for 48 hours. Compounds are tested at a single concentration, which is 10^-5 M for most compounds. The reported endpoint is percent growth (GI% or GIPRCNT), where numbers from 0 - 100% represent growth inhibition, and numbers from -100% - 0 represent cell death. For example, a value of 40 represents 60% growth inhibition. A value of 0 means no net growth occurred over the course of the experiment. […]
Compounds without any hit were thinned out: in the full panel of roughly 83,000, 20% have a hit.
Checkbox rule: growth lower than 80% = fulfilled; growth not lower than 80% = not fulfilled.

In the record for Nc1nc(SN=Nc2ccc(S(N)(=O)=O)cc2)c2[nH]cnc2n1 , is growth less than 80%? fulfilled

growth strictly < 80% for this molecule? CCC(C)N(CCNc1cc(OC)cc2cccnc12)CCC(C)C (centres undefined) not fulfilled

Quick check: growth of FC(F)(F)c1cccc(Oc2ccc(Nc3ncnc4ccc(OCCCN5CCOCC5)cc34)cc2Cl)c1 under 80%? fulfilled

Is growth strictly under 80% for the entry Cc1ccc(S(=O)(=O)Nc2ccc(Cl)cc2)cc1 ? not fulfilled

Lab note: confirm whether the reported growth for this molecule is below 80%, equality not counting. molecule: CSc1nnc2c(=O)n(C)c(=O)n(C)c2n1 not fulfilled

Field: below-cutoff. Rule: recorded growth strictly less than 80%. Subject: O=C(Nc1ccc(Cl)cc1)Nc1ccc(Cl)c(Cl)c1 fulfilled

growth under 80%? Item: CCNNC(=O)[C@@H]1[C@H](c2cc(OC)c(OC)c(OC)c2)c2cc3c(cc2[C@H](O)[C@H]1CO)OCO3 fulfilled

Decide: growth of CCc1c(Nc2ccc(C)cc2)[nH]c(N)nc1=S strictly below 80%? not fulfilled

Is the reported growth for O=C1CCC(NC(=S)Nc2ccccc2)N1 (centres undefined) strictly below 80%? not fulfilled

Regarding c1ccc(N2N=C(c3cccc(Nc4ccncc4)c3)CC2c2ccc3c(c2)OCO3)cc1 (centres undefined) , kindly confirm whether its growth is beneath 80%. fulfilled

---

System: CCRF-CEM leukemia
Experiment: NCI-60 one-dose screen, 48 h (100 = growth as untreated, 0 = no growth, -100 = all killed)
Conditions: 10 µM unless noted
About 83,000 compounds went through this panel and 20% of them were active in at least one assay; those are over-represented in the sample as a whole.
measured.property: growth (%)
The figure you give is taken to be in %; do not add the unit.

COc1c(Cl)cc(Cl)c2ccc(C=C3C(=O)NC(=S)NC3=O)nc12 :: 105
c1ccc(CCSc2ncnc3nc[nH]c23)cc1 :: 92.6
CN(Cc1ccccc1)c1nc(Cl)c(C2CC(c3ccc(Cl)cc3)=Cc3[nH][nH]c(=O)c32)s1 (stereo not given) :: 106
O=C(Nc1nc2ccc(C(=O)N3CCN(c4ccc(Cl)c(Cl)c4)CC3)cc2s1)c1ccc(NCCc2ccccc2)c([N+](=O)[O-])c1 :: 93.6
O=c1[nH]c2c(s1)CCCC2CN1CCCCC1 (stereo not given) :: 109

Entry CC(=O)OCCCCCNc1ccccc1 : reported growth = ? 103

I'd like to know its growth. The molecule in question is OC1(c2ccc(Cl)c(C(F)(F)F)c2)CCN(CCCC(c2ccc(F)cc2)c2ccc(F)cc2)CC1 -39

I would be grateful if you could share the reported growth for c1cnc2nc3c(cc2c1)oc1ccccc13 . 90.9

For the molecule shown here, O=C1OC(=O)C2C1CC=CC2c1ccccc1 (stereo not given) , give the reported growth. 84.2

Returns the measured growth for the input molecule. Input: O=C(N/N=C/c1ccc(F)cc1)c1ccccc1Nc1cccc(C(F)(F)F)c1 6.32

What measured growth goes with COc1ccc(/C=C/C(=O)c2ccc(Nc3ncnc4ccccc34)cc2)cc1OC ? 49.7

Reported growth for CCOC(=O)C1CC(=O)c2cc(OC)c(OC)cc2C1 (stereo not given) : what is it? 84.6

---

Tested on: SK-MEL-5 melanoma
Test: NCI-60 one-dose screen, 48 h (100 = growth as untreated, 0 = no growth, -100 = all killed)
Conditions: 10 µM unless noted
Compounds without any hit were thinned out: in the full panel of roughly 83,000, 20% have a hit.
growth vs 70%: less than gives true (1); not less than gives false (0).

COc1cc(C2CC(c3cccc(Nc4ccncc4)c3)=NN2c2ccc(Cl)cc2)cc(OC)c1OC (stereo unspecified) :: true (1)
COc1ccc(C(=O)/C=C/c2ccc(OCc3ccccc3)c(OC)c2)cc1OC :: true (1)
Cn1/c(=N/NC(N)=S)ccc2ccccc21 :: false (0)

Strictly below 70%: is that where growth of COc1ccc(/C=C/c2n[nH]c3ccc(N4CCOC4=O)cc23)cc1 sits? true (1)

Just wondering, is growth of CC(C)C1C2=C(NCCN1C(=O)Cc1ccccc1)C(C)(C)N(Cc1ccccc1)C2=O (stereo unspecified) below 70%? false (0)

I'd appreciate it if you could check whether COc1cccc2c1C(=O)c1c(O)c3c(c(O)c1C2=O)C[C@@](O)(C(=O)CO)C[C@@H]3O[C@H]1C[C@H](N)[C@@H](O)[C@H](C)O1 has growth smaller than 70%. true (1)

---

System: HCC-2998 colon
Assay: NCI-60 one-dose screen, 48 h
Conditions: 10 µM unless noted
Compounds without any hit were thinned out: in the full panel of roughly 83,000, 20% have a hit. Calls of active or inactive are those of the source. How the source made its calls: active means growth percent below 10; inactive means the rest.
Pick one: class 1 (active), class 0 (inactive)

Worked examples follow.
[2H]C1([2H])NC([2H])([2H])C([2H])([2H])N(c2ccc(Nc3ncc4cc(C(=O)N(C)C)n(C5CCCC5)c4n3)nc2)C1([2H])[2H] :: class 0
Clc1ccc(N2N=C(c3cccc(Nc4ccncc4)c3)CC2c2ccc3c(c2)OCO3)cc1 (centres undefined) :: class 1
CCN(CC)CCCC(C)Nc1cc(-c2cccc(OC(F)(F)F)c2)nc2ccc(N3CCCC3)cc12 (centres undefined) :: class 1

Here is another compound to look at.
Test call for this compound, please: O=C(Nc1ccc(Nc2ncccn2)cc1)NC1C=c2ccccc2=CC1 (centres undefined) class 0

---

# reported growth; entries follow
Tested on: HOP-92 NSCLC
Experiment: NCI-60 one-dose screen, 48 h (100 = growth as untreated, 0 = no growth, -100 = all killed)
Conditions: 10 µM unless noted
The panel holds about 83,000 compounds, 20% with a hit somewhere; the sample as a whole holds those more often.
Response body: numeric value in %, unit text excluded.

COc1cccc(CCC(=O)c2cc3c(N)c(C(=O)Nc4ccccc4)sc3nc2C)c1 :: 74.2
O=C1Nc2c(ccc(Cl)c2Cl)/C1=C/c1ccc([N+](=O)[O-])cc1 :: 95.5

Next:
Entry COc1ccc(C(=O)c2cc3c(N)c(C(=O)Nc4cccc(Cl)c4C)sc3nc2C)cc1 : reported growth = ? 27.7

---

Tested on: HT29 colon
Experiment: NCI-60 one-dose screen, 48 h (100 = growth as untreated, 0 = no growth, -100 = all killed)
Conditions: 10 µM unless noted
Compounds without any hit were thinned out: in the full panel of roughly 83,000, 20% have a hit.
Rule: measured growth below 10% gets fulfilled; anything equal to or greater than 10% gets not fulfilled.

Observe how each entry below is paired with its result.
Cn1/c(=N/NC(N)=S)ccc2ccccc21 :: not fulfilled
CN1C(=O)N(C)[C@H]2NC(NN)=N[C@H]21 :: not fulfilled
Clc1ccc(N2N=C(c3cccc(Nc4ccncc4)c3)CC2c2ccc(Br)cc2)cc1 (stereo not given) :: fulfilled
CCCc1cc2c(cc1Br)OCO2 :: not fulfilled
Cc1cc(NC(=O)c2cnc(N3CCN(CCOCCOCCOCCOCCC(=O)N[C@H](C(=O)N4C[C@H](O)C[C@H]4C(=O)N[C@@H](C)c4ccc(-c5scnc5C)cc4)C(C)(C)C)CC3)cn2)c2ncccc2c1 :: fulfilled

Does the reported growth of the following molecule sit strictly below 10%? O=C1OC(=O)C2C1CC=CC2c1ccccc1 (stereo not given) not fulfilled

Find out if reported growth for Cc1nc2sc(C(=O)Nc3cccc(Br)c3)c(N)c2cc1C(=O)c1ccc(C(F)(F)F)cc1 is less than 10% not fulfilled

Does this molecule meet the criterion growth < 10%? COC(=O)C(c1ccccc1)C(CC(=O)c1ccccc1)c1ccccc1 (stereo not given) not fulfilled

---

Below, each of the molecules is paired with its reported growth value.
Tested on: UACC-257 melanoma
Test: NCI-60 one-dose screen, 48 h (100 = growth as untreated, 0 = no growth, -100 = all killed)
Settings: 10 µM unless noted
The panel holds about 83,000 compounds, 20% with a hit somewhere; the sample as a whole holds those more often.
Write it as a number; the unit % goes unstated.

The following molecules have reported results that may help.
N/C(=N\N=C\c1cc2ccccc2[nH]1)N/N=C/c1cc2ccccc2[nH]1 :: 107
Nc1c(C(=O)Nc2cccc3ccncc23)sc2nc3c(cc12)C(=O)CCC3 :: 49.2

# growth lookup, item O=C(Nc1ccc2ncnc(Nc3ccc(Oc4cccc(F)c4)c(Cl)c3)c2c1)c1ccc(CNCCO)cc1 99.1

Which growth value belongs to Cn1/c(=N/NC(N)=S)ccc2ccccc21 ? 70

The measurements presented in this section are drawn from PubChem BioAssay (NCI).
